Test system: human plasma
Test: Thrombin time (TT) in human plasma, anti-coagulant activity
Assay type: biochemical
Details: human plasma deficient in platelets, 2 min incubation at 37° C., Prest Thrombin
Rule: TT Ctt2 (concentration that doubles the coagulation time) under 0.09 µM gives not fulfilled, otherwise fulfilled.

Cc1nc(N)ccc1CNC(=O)[C@]12C[C@H]1CCCN2C(=O)[C@H](N)CC1CCCCC1.Cl.Cl | fulfilled

**Query** Textbook exercise: given the entry Cl.Cl.N=C(N)c1ccc(CNC(=O)[C@]23C[C@H]2CCN3C(=O)[C@H](N)C(C2CCCCC2)C2CCCCC2)cc1 , state whether its TT Ctt2 (concentration that doubles the coagulation time) is greater than or equal to 0.09 µM.
**Result** fulfilled

**Query** Entry Cl.N=C(N)c1ccc(CNC(=O)[C@]23C[C@H]2CCCN3C(=O)[C@@H](CC2CCCCC2)NCC(=O)O)cc1 : is its TT Ctt2 (concentration that doubles the coagulation time) no less than 0.09 µM?
**Result** not fulfilled

All figures here come from patent US6288077A.
